Assay: Pharmacokinetics in whole blood, CD-1 mice
Settings: male, CD-1, mouse, whole blood, po, 700 mg/kg, Whole Blood Conc. of compound 2, CD-1 mice, single 700 mg/kg RE-024-02 PO, 4 hr, LLOQ 10.2 nM
Readout label: concentration at 4 h (nM)

{"Chem smiles": "COC(=O)CCNC(=O)[C@@H]1OP(=O)(O)OCC1(C)C", "Readout label": "concentration at 4 h", "Observed result": 354}

----------
Experiment: in vivo
Conditions: male, C57Bl6, mouse, po, 700 mg/kg

{"Compound": "CC(C)(CO)[C@@H](O)C(=O)NCCC(=O)O [PA, pantothenate]", "Unit info": "µM·h", "AUC": 0.154}

----------
Experiment: Pharmacokinetics in whole blood, CD-1 mice
Settings: male, CD-1, mouse, in vivo, po, 700 mg/kg, Compound 1 Whole Blood Conc., CD-1 mice, 700 mg/kg RE-024-02 by PO, 0.333 hr, individual animals, LLOQ 0.6 ng/mL
Readout label: concentration at 0.333 h (ng/mL)

{"Molecule": "COC(=O)CCNC(=O)[C@@H]1OP(=O)(N[C@@H](C)C(=O)OC)OCC1(C)C (stereo partly shown)", "Observed result": 109}

----------
Assay: in vivo
Conditions: male, C57Bl6, mouse, po, 700 mg/kg, PA Concentration in Mouse Striatal Dialysate (Corrected for Dilution), Mean
Readout label: concentration at 0.5 h (nM)

{"Molecule": "CC(C)(CO)[C@@H](O)C(=O)NCCC(=O)O [PA, pantothenate]", "Unit info": "nM", "Observed result": 57.7}

----------
Experiment: Pharmacokinetics in whole blood, CD-1 mice
Settings: male, CD-1, mouse, in vivo, 700 mg/kg, Fosmetpantotenate Mean Conc., male CD-1 mice, fosmetpantotenate 700 mg/kg oral, blood, 0.333 hr, mean, BQL <1.02 nM
Readout label: concentration at 0.333 h (nM)

{"Compound": "COC(=O)CCNC(=O)[C@H](O)C(C)(C)COP(=O)(N[C@@H](C)C(=O)OC)Oc1ccccc1 (mixture of isomers) [Fosmetpantotenate]", "Observed result": 23.6}

----------
Test: Pharmacokinetics in whole blood, cynomolgus monkeys
Conditions: male, cynomolgus monkey, in vivo, 300 mg/kg, Fosmetpantotenate blood concentration, Cyno #2, male cynomolgus monkeys, fosmetpantotenate 300 mg/kg oral, blood, 0.083 hr

{"Compound": "COC(=O)CCNC(=O)[C@H](O)C(C)(C)COP(=O)(N[C@@H](C)C(=O)OC)Oc1ccccc1 (mixture of isomers) [Fosmetpantotenate]", "concentration at 0.083 h, nM": 351}

----------
Assay: Microdialysis (striatal dialysate and blood) in cynomolgus monkeys
Assay type: in vivo, cynomolgus monkey
Conditions: cynomolgus, cynomolgus monkey, in vivo; blood; fosmetpantotenate 300 mg/kg PO; mean (individual values); analyte = label; read-out: AUC

{"Compound": "COC(=O)CCNC(=O)[C@H](O)C(C)(C)COP(=O)(N[C@@H](C)C(=O)OC)Oc1ccccc1 (mixture of isomers) [Fosmetpantotenate]", "Unit info": "µM·h", "AUC": 6.81}

----------
Assay: Microdialysis (striatal dialysate and blood) in cynomolgus monkeys
Type: in vivo, cynomolgus monkey
Details: cynomolgus monkey, in vivo; dialysate; fosmetpantotenate 100 mg/kg PO; read-out: AUC
Method: Monkeys were sedated by intramuscular (i.m.) ketamine administration and cannulated for intravenous (i.v.) administration of propofol infusion (initiated 15–30 min after ketamine administration). […] NIFTI-compatible images were loaded into 3D viewer software (MRIcro version 1.40 build 1), and the stereotaxic zero in the MRI image was determined using the coordinates of the earbar-tips. […]

{"Molecule": "COC(=O)CCNC(=O)[C@H](O)C(C)(C)COP(=O)(N[C@@H](C)C(=O)OC)Oc1ccccc1 (mixture of isomers) [Fosmetpantotenate]", "AUC": "0.209 µM·h"}

----------
Assay: Pharmacokinetics in whole blood, cynomolgus monkeys
Details: male, cynomolgus monkey, in vivo, 300 mg/kg, Fosmetpantotenate Mean Conc., male cynomolgus monkeys, fosmetpantotenate 300 mg/kg oral, blood, 4 hr
Readout label: concentration at 4 h (nM)

{"Molecule": "COC(=O)CCNC(=O)[C@H](O)C(C)(C)COP(=O)(N[C@@H](C)C(=O)OC)Oc1ccccc1 (mixture of isomers) [Fosmetpantotenate]", "Observed result": 249}

----------
Assay: Pharmacokinetics in whole blood, CD-1 mice
Conditions: male, CD-1, mouse, in vivo, 300 mg/kg, Mean Conc., blood; fosmetpantotenate 300 mg/kg PO; 0.5 hr

{"Compound": "COC(=O)CCNC(=O)[C@H](O)C(C)(C)COP(=O)(N[C@@H](C)C(=O)OC)Oc1ccccc1 (mixture of isomers) [Fosmetpantotenate]", "concentration at 0.5 h, nM": 1.36}

----------
Assay: Pharmacokinetics in whole blood, CD-1 mice
Details: male, CD-1, mouse, whole blood, po, 700 mg/kg, Whole Blood Conc. of compound 3, CD-1 mice, single 700 mg/kg RE-024-02 PO, 2 hr, LLOQ 6 ng/mL

{"Compound": "CC1(C)COP(=O)(O)O[C@H]1C(=O)NCCC(=O)O [Compound 3]", "Unit info": "ng/mL", "concentration at 2 h": 48.2}

----------
Assay: Pharmacokinetics in whole blood, cynomolgus monkeys
Conditions: cynomolgus monkey, whole blood, po, 300 mg/kg, Concentration of compound 2 in whole blood, cynomolgus monkeys, single oral 300 mg/kg fosmetpantotenate, 1 hr, LLOQ 2.03 nM
Readout label: concentration at 1 h (nM)

{"Chem smiles": "COC(=O)CCNC(=O)[C@@H]1OP(=O)(O)OCC1(C)C", "Unit info": "nM", "Observed result": 1970}

----------
Assay: Pharmacokinetics in whole blood, cynomolgus monkeys
Conditions: male, cynomolgus monkey, in vivo, 300 mg/kg, Fosmetpantotenate blood concentration, Cyno #1, male cynomolgus monkeys, fosmetpantotenate 300 mg/kg oral, blood, 1 hr

{"Compound": "COC(=O)CCNC(=O)[C@H](O)C(C)(C)COP(=O)(N[C@@H](C)C(=O)OC)Oc1ccccc1 (mixture of isomers) [Fosmetpantotenate]", "concentration at 1 h [µM]": 9.95}

----------
Experiment: Pharmacokinetics in whole blood, cynomolgus monkeys
Details: male, cynomolgus monkey, in vivo, 300 mg/kg, Fosmetpantotenate blood concentration, Cyno #2, male cynomolgus monkeys, fosmetpantotenate 300 mg/kg oral, blood, 0.333 hr

{"Molecule": "COC(=O)CCNC(=O)[C@H](O)C(C)(C)COP(=O)(N[C@@H](C)C(=O)OC)Oc1ccccc1 (mixture of isomers) [Fosmetpantotenate]", "Unit info": "nM", "concentration at 0.333 h": 972}

----------
Assay: Pharmacokinetics in whole blood, CD-1 mice
Conditions: male, CD-1, mouse, whole blood, po, 100 mg/kg, Whole Blood Conc. of compound 3, CD-1 mice, single 100 mg/kg RE-024-02 PO, 8 hr, LLOQ 6 ng/mL
Readout label: concentration at 8 h (ng/mL)

{"Compound": "CC1(C)COP(=O)(O)O[C@H]1C(=O)NCCC(=O)O [Compound 3]", "Readout label": "concentration at 8 h", "Observed result": 6.1}

----------
Test: Pharmacokinetics in whole blood, cynomolgus monkeys
Settings: male, cynomolgus monkey, in vivo, 300 mg/kg, Fosmetpantotenate blood concentration, Cyno #2, male cynomolgus monkeys, fosmetpantotenate 300 mg/kg oral, blood, 4 hr
Readout label: concentration at 4 h (nM)

{"Molecule": "COC(=O)CCNC(=O)[C@H](O)C(C)(C)COP(=O)(N[C@@H](C)C(=O)OC)Oc1ccccc1 (mixture of isomers) [Fosmetpantotenate]", "Observed result": 267}

----------
Assay: Pharmacokinetics in whole blood, Sprague-Dawley rats
Details: Sprague-Dawley, rat, whole blood, po, 300 mg/kg, Whole Blood Conc. of compound 2, Sprague-Dawley rats, single 300 mg/kg RE-024-02 PO, time 2, LLOQ 10.2 nM
Readout label: concentration at 2 h

{"Chem smiles": "COC(=O)CCNC(=O)[C@@H]1OP(=O)(O)OCC1(C)C", "Readout label": "concentration at 2 h", "Observed result": "258 nM"}

----------
Test: Pharmacokinetics in whole blood, CD-1 mice
Details: male, CD-1, mouse, whole blood, oral, 100 mg/kg, Conc., blood; fosmetpantotenate 100 mg/kg PO; 2 hr; individual animals

{"Compound": "CC(C)(CO)[C@@H](O)C(=O)NCCC(=O)O [PA, pantothenate]", "concentration at 2 h [nM]": 282}

----------
Experiment: Pharmacokinetics in whole blood, CD-1 mice
Details: male, CD-1, mouse, whole blood, po, 100 mg/kg, Whole Blood Conc. of compound 2, CD-1 mice, single 100 mg/kg RE-024-02 PO, 8 hr, LLOQ 3 ng/mL
Readout label: concentration at 8 h (ng/mL)

{"Chem smiles": "COC(=O)CCNC(=O)[C@@H]1OP(=O)(O)OCC1(C)C", "Observed result": 3.5}

----------
Assay: Pharmacokinetics in whole blood, CD-1 mice
Details: male, CD-1, mouse, whole blood, po, 100 mg/kg, Whole Blood Conc. of compound 2, CD-1 mice, single 100 mg/kg RE-024-02 PO, 0.083 hr, LLOQ 10.2 nM

{"Compound": "COC(=O)CCNC(=O)[C@@H]1OP(=O)(O)OCC1(C)C [Compound 2]", "concentration at 0.083 h / nM": 58.9}
